Test system: P388 leukemia ip, CD2F1 mice, survival T/C
Test: NCI In Vivo Anticancer Drug Screen. Data for tumor model P388 Leukemia (intraperitoneal) in CD2F1 (CDF1) mice
Details: endpoint: median survival time; dose: 50.0 mg/kg/injection; schedule: Q01DX005 (ip); vehicle: Klucel (hydroxypropylcellulose) (HPC); higher = longer survival
Method: The antitumor activity of compounds was measured in mice bearing transplantable tumors. Survival or tumor size were measured and the results are expressed as the measurement made in the treated group (T) divided by the measurement made in the vehicle treated control group (C). The tumor model used in this assay is P388 Leukemia (intraperitoneal) in CD2F1 (CDF1) mice
Inconclusive results and toxic doses are left out.
So I've got a bunch of molecules here, and I need their T/C values.

IN: Consider the molecule shown here: `N#CC(C#N)=C1c2ccccc2C(=O)c2ccccc21` What is its recorded T/C?
OUT: 88 % of control

IN: Would you kindly repeat that for `Cc1nc2ncn(-c3ccccc3)c2c(=O)n1-c1cccnc1` ?
OUT: 105 % of control

IN: Also check `O=C(/C(O)=C(\O)C(=O)N(C1CCCCC1)C1CCCCC1)N(C1CCCCC1)C1CCCCC1`
OUT: 96 % of control

IN: Ok, now Cc1cc2nc3c(C4OCC(O)C4O)nn(-c4ccccc4)c3nc2cc1C (stereo not given)
OUT: 88 % of control

IN: How about COc1cc(NC(=O)CNC(=O)CNC(=O)C(N)CC(C)C)cc2ccccc12 (stereo not given) ?
OUT: 100 % of control

IN: Also check `CCCCCCOC(=O)c1ccccc1NC(=O)NN1CCCCCC1`
OUT: 100 % of control

IN: Entry CC1=CC(=O)C2(OC3OC(C)C(O)C(O)C3O)C=COC(OC3OC(CO)C(O)C(O)C3O)C12 (stereo not given) please
OUT: 95 % of control

IN: Brc1ccc(COC2C[C@]34CC=CC[C@@]3(C2)O4)cc1 (stereo not given in full) ?
OUT: 105 % of control

IN: And `Cc1ccc(S(=O)(=O)N(N)CCC#N)cc1` ?
OUT: 94 % of control

IN: Then this molecule: CC12CCC3c4ccc(O)cc4CCC3C1CCC2(O)CN1CCCCC1 (stereo not given)
OUT: 96 % of control

IN: Record: `O=CNc1cccnc1C1OCCO1`
OUT: 98 % of control

IN: How about `O=C1C(=C(Cl)Cl)C(=O)c2ccccc21` ?
OUT: 91 % of control

IN: Would you kindly repeat that for `CC(C)(C)c1ccnc(C(O)(C(F)(F)F)C(F)(F)F)c1` ?
OUT: 101 % of control

IN: How about this molecule: O=C1NC(=O)C(C(=O)Nc2ccc(Cl)cc2)c2ccccc21 (stereo not given)
OUT: 101 % of control

IN: Also need NC(CSSCC(N)C(=O)c1ccccc1)C(=O)c1ccccc1 (stereo not given) , thanks.
OUT: 98 % of control

---

tested on: P388 leukemia ip, CD2F1 mice, survival T/C; experiment: NCI In Vivo Anticancer Drug Screen. Data for tumor model P388 Leukemia (intraperitoneal) in CD2F1 (CDF1) mice; conditions: endpoint: median survival time; dose: 50.0 mg/kg/injection; schedule: Q01DX009 (ip); vehicle: saline with Tween-80
Toxic doses and inconclusive results are not listed. How the source made its calls: active means survival T/C of 150% or more; inactive means T/C below 125% in these data.
Respond only with the outcome that fits, drawn from active, inactive

IN: Given `Clc1ncccc1SSc1cccnc1Cl` , state the outcome it received in this test.
OUT: inactive

IN: Moving on to `c1ccc2c(c1)CCc1ccccc1C2NC1=NCCSC1`
OUT: inactive

IN: How about this molecule: `Cc1cc(N)c(C)c(Br)c1C`
OUT: inactive

IN: Next molecule up: `CC1(C)C/C(=C2\COC(=O)C2=O)NN1c1ccccc1`
OUT: inactive

IN: Same again, this time with `C(=Nc1cccc2ccccc12)Nc1cccc2ccccc12.[Cu+2]`
OUT: inactive

IN: Do the same for `CN(C)Cc1nc2sc3c(c2c(=O)[nH]1)CCCC3` please
OUT: inactive

IN: Please do the same for `c1ccc2sc(SSc3nc4ccccc4s3)nc2c1` as well.
OUT: inactive

IN: Same lookup for `O=C1c2cccnc2C(=O)c2c(O)ccc(O)c21` , please.
OUT: inactive

IN: Lookup [Cl][Pt+2][Cl].[NH-]C1CCCC2CCC[N-]C12 (stereo unspecified)
OUT: active

IN: Also, `CC(=O)N1CC(=O)NC1=S` please.
OUT: inactive

IN: Then this molecule: CC12C(=O)C(c3ccccc3)(C(c3ccccc3)=C1c1ccccc1)C1OC(=O)OC12 (stereo unspecified)
OUT: inactive

IN: Another molecule to check: N#CC1(c2ccccc2)OC1(C#N)c1ccccc1 (stereo unspecified)
OUT: inactive

IN: One more molecule: `CCOC(=O)Oc1ccc(/C=N/NC(N)=S)nc1`
OUT: active

IN: Repeat with `CCCCCCCCCCCCCCCCN1C(=O)/C(=C\c2ccc(O)cc2)SC1=Nc1ccccc1`
OUT: inactive

IN: Next: CC1CC(=O)NC(=O)N1 (stereo unspecified)
OUT: inactive

IN: // query: `CCCCCN(CCCCC)CCCCC`
OUT: inactive

IN: Also check `CC1=NNB(O)c2ccsc21`
OUT: inactive

IN: Entry `NNC(=O)c1ccccc1O` please
OUT: inactive

IN: Another: `COC(=O)/C=C1\Sc2ccccc2NC1=O`
OUT: inactive

IN: Also, CCCC(=O)OCC1OC(n2cnc3c(=S)nc(N)[nH]c32)C(OC(=O)CCC)C1OC(=O)CCC (stereo unspecified) please.
OUT: inactive

IN: Now the molecule `CC1C2=C(CC(C)(C)CC2=O)OC2=C1C(=O)CC(C)(C)C2`
OUT: inactive

Origin of the recorded values: PubChem BioAssay AID330
